# System: Human Umbilical Vein Endothelial Cells (HUVECs)
# Procedure Summary: Inhibition against sandwich tube formation by vascular endothelial cells in response to stimulation by VEGF
# Type: cell-based
# Setup Conditions: HUVEC in collagen gel sandwich, stimulation by VEGF (25 ng/ml VEGF and 10 ng/ml EGF), 4th day, total tube length, read-out: IC50 (concentration required for 50% inhibition of tube formation)
Structures can show the parent of a compound that is named as a salt.
Classification field. Basis: IC50. Definitions: band 1 = under 4 nM, band 2 = from 4 nM up to 9 nM, band 3 = 9 nM and over

# classify by IC50 band: COCCOc1cc2nccc(Sc3ccc(NC(=O)Nc4ccccc4F)s3)c2cc1C#N
band 3

# classify by IC50 band: COc1cc2nccc(Oc3ccc(NC(=O)NC4CC4)c(Cl)c3)c2cc1C(=O)Nc1cccnc1
band 3

# classify by IC50 band: NC(=O)c1cc2c(Oc3ccc(NC(=O)NC4CC4)c(Cl)c3)ccnc2cc1OCCCN1CCOCC1
band 2

# classify by IC50 band: CCN(CC)C[C@@H](O)COc1ccc(-c2cc3c(Oc4ccc(NC(=O)NC5CC5)c(Cl)c4)ncnc3[nH]2)cc1
band 1

# classify by IC50 band: CS(=O)(=O)CCCOc1cc2nccc(Oc3ccc(NC(=O)Nc4ccc(F)cc4)cc3)c2cc1C#N
band 2

# classify by IC50 band: O=C(C1CC1)N(C(=O)C1CC1)c1cc(Oc2ccc3c(ccn3C(=O)NC3CC3)c2)ccn1
band 1

# classify by IC50 band: COc1cc2nccc(Oc3ccc(NC(=O)NC4CC4)c(Cl)c3)c2cc1C(=O)NCC#N
band 1

# classify by IC50 band: N#Cc1cc2c(Oc3ccc(NC(=O)Nc4ccc(F)cc4F)c(F)c3)ccnc2cc1OCc1ccccc1
band 1

# classify by IC50 band: COC(=O)CCCOc1cc2nccc(Oc3ccc(NC(=O)Nc4ccc(OC)cc4)cc3)c2cc1C#N
band 3

# classify by IC50 band: COc1ccc(NC(=O)Nc2ccc(Oc3ccnc4cc(OCCCc5ccncc5)c(C#N)cc34)cc2)cc1
band 3

# classify by IC50 band: CONC(=O)c1cc2c(Oc3ccc4c(ccn4C(=O)NC4CC4)c3)ccnc2cc1OC
band 1

# classify by IC50 band: CN1CCC(COc2cc3nccc(Oc4ccc(NC(=O)Nc5nccs5)c(F)c4)c3cc2C#N)CC1
band 2

# classify by IC50 band: CCN(CC)CCCOc1cc2nccc(Oc3ccc4c(ccn4C(=O)NC4CC4)c3)c2cc1C#N
band 1

# classify by IC50 band: COCCOc1cc2nccc(Oc3ccc(NC(=O)NC4CC4)cc3)c2cc1C(N)=O
band 2

# classify by IC50 band: COc1cc(Nc2cc(Oc3ccc(NC(=O)Nc4ccccc4)cc3)ncn2)cc(OC)c1OC [Example 578, hydrochloride]
band 3
